Known response of 2nd mAb of a selection of binders
- TARGET_SYSTEM: T1, ZIKV-VLP (Native Antigen Inc.) (Zika virus)
- T1 construct: also called Zika VLP; ZVLP
- TEST_PROTOCOL: BLI binning on ZIKV-VLP; 1st mAb (row): 306-2
Lab note: jot the number down without any unit.

Param item = anti-ZIKV antibody 306-2 (antibody, V domains shown) VH: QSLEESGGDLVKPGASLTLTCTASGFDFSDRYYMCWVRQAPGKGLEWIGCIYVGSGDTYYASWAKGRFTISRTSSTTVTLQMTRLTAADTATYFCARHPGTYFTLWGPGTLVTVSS VL: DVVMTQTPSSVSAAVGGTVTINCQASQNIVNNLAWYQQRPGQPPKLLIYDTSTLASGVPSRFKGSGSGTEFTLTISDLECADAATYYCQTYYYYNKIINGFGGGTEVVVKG ; retrieve measured response of 2nd mAb. 0.0225

Param item = anti-ZIKV antibody 242-3 (antibody, V domains shown, also called clone 242-3) VH: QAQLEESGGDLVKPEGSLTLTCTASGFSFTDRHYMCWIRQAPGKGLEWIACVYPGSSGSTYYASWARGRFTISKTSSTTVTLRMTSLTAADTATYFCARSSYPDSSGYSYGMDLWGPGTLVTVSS VL: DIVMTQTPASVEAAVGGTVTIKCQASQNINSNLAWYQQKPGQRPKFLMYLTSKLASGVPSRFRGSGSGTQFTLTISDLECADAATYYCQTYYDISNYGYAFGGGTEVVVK ; retrieve measured response of 2nd mAb. 0.0732

Param item = anti-ZIKV antibody 270-12 (antibody, V domains shown, also called clone 270-12) VH: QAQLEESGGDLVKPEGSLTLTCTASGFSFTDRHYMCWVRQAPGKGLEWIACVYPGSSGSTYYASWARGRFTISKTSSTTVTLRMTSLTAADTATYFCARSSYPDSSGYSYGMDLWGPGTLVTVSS VL: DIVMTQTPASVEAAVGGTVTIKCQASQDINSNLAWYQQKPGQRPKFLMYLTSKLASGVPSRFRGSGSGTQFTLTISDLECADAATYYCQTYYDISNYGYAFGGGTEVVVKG ; retrieve measured response of 2nd mAb. 0.0432

Param item = anti-ZIKV antibody 289-3 (antibody, V domains shown, also called clone 289-3; subclone 289-3) VH: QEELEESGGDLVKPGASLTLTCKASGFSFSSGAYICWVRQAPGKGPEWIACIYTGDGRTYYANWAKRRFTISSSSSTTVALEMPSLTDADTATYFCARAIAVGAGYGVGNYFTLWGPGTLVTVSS VL: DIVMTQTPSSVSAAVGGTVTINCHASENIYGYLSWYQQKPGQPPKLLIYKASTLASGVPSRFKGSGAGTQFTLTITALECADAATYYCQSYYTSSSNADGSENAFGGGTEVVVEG ; retrieve measured response of 2nd mAb. 0.0428
